System: MDA-MB-435
experiment.summary: NCI tumour cell line growth inhibition, 48 h
Activity calls are given as the source filed them. No stated cut-off is given here; in the data, active = GI50 up to about 1.1 µM and inactive = higher.
Write down the outcome that applies. Available outcomes: True for active, False for inactive

Known results for molecules:
O=S(=O)(Nc1nc2ccccc2nc1Nc1ccc2ccccc2c1)c1ccccc1 ... False
C=C1CC2(C[C@@H](c3ccccc3)O[C@@H](c3ccccc3)C2)OC1=O (some centres undefined) ... False
C/C(=N\c1cc(Cl)cc(Cl)c1)c1ccncc1 ... False
CC(Cc1ccc(Cl)cc1Cl)NO (centres undefined) ... False
CCOC(=O)c1ccc(/N=C2\SC(=S)N(c3ccc(F)cc3)\C2=N/c2ccc(C(=O)OCC)cc2)cc1 ... False
CS(=O)(=O)CCC(N)P(=O)(O)O (centres undefined) ... False

Ask | GET /call?item= CCOC(=O)[C@@H]1ON2O[C@@H](OC3CCCCC3c3ccccc3)C[C@H]3OC(=O)[C@@H]1C32 (some centres undefined) returns the recorded outcome of this test.
Reply | False

Ask | GET /call?item= COC(=O)C(=O)C(C(=O)C(=O)Nc1ccc(C)c(C)c1)c1nc2ccc([N+](=O)[O-])cc2nc1O (centres undefined) returns the recorded outcome of this test.
Reply | False

Ask | GET /call?item= Cc1ccc(C)c(C2NC(=O)c3ccccc3N2)c1 (centres undefined) returns the recorded outcome of this test.
Reply | True

Ask | GET /call?item= CCN(CCCOc1ccccc1)CCN(CC)CCCOc1ccccc1 returns the recorded outcome of this test.
Reply | False

Ask | GET /call?item= CN(C)c1ccc(/C=C2\N=C(N/N=C/c3ccccc3O)NC2=O)cc1 returns the recorded outcome of this test.
Reply | False

Ask | GET /call?item= CC(C)C(O)(C(=O)OCN1C(=O)C2C3C=CC(C2C1=O)C1C2C(=O)N(COC(=O)C(O)(C(C)C)C(C)O)C(=O)C2C31)C(C)O (centres undefined) returns the recorded outcome of this test.
Reply | False
